src = patent US20250206836A1

# system-under-test: human CD36 (on HEK 293 or SCC25 cells) (human, UniProt P16671 2-472)
# Sequence (P16671 2-472 limits assumed): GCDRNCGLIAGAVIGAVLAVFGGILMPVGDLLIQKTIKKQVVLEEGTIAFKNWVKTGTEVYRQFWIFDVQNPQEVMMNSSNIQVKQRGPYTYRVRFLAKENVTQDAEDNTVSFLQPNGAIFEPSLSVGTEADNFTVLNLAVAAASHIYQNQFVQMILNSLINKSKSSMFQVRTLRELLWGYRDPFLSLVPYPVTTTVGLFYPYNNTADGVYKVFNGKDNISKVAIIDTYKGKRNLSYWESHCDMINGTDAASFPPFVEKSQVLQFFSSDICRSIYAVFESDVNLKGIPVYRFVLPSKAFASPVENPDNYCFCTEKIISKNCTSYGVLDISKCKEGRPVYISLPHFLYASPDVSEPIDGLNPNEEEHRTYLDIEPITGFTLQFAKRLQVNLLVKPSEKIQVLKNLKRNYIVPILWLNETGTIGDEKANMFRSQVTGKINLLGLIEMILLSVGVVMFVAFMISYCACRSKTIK
# protocol-text: cell-based or functional assay
property-measured: IC50 of oxLDL uptake inhibition (DiI-oxLDL, SCC25 cells) (nM)
Write down the numeric answer in nM and omit the unit.

Example results:
binder: 28G04 (antibody, human IgG1, V domains shown, Chimeric: mouse variable regions on human IgG1 LALA (L234A/L235A); also called 028G04) VH: EVQLQQSGPELVKPGASVKISCKTSGYTFTEYTIHWVKQSHGKSLEWIGGIIPNNGGSSHKQNFKDKATLTVDKSSSTAYMELRSLTSEDSAVYYCARAGDYAFDYWGQGTTLTVSS VL: ETTVTQSPASLSMAIGEKVTIRCITSTDIDDDMNWYQQKPGEPPKLLISEGNTLRPGVPSRFSSSGYGTDFVFTIENMLSEDVADYYCLQSGTLPFTFGSGTKLEIK
val: 1.67
--
binder: 11G04 (antibody, human IgG1, V domains shown, Chimeric: mouse variable regions on human IgG1 LALA (L234A/L235A); also called 011G04) VH: EVQLQQSGAELVRPGASVTLSCKASGYRFSDYEMQWVKQTPVHGLEWIGGIDPETGGIAYNQKFKVKATLTADKSSSTAFMELRSLTSEDSAVYYCTRKLDFDYWGQGTTLTVSS VL: ETTVTQSPASLSVATGEKVTIRCITSTDIDDDMNWYQQKPGEPPKLLISEGNTLRPGVPSRFSSSGYGTDFVFTIENMLSEDVADYYCLQSDNLPLTFGAGTKLELK
val: 1.17
--
binder: 33G04 (antibody, human IgG1, V domains shown, Chimeric: chicken variable regions on human IgG1 LALA (L234A/L235A); also called 033G04) VH: AVTLDESGGGLQTPGGALSLVCKASGFDFSSYAMGWVRQAPGKGLEWVAGKAKDGGGTAYGSAVKGRATISRDNGQSTVRLQLSNLRAEDTGVYYCAKSAYGDWFYGSSGPYADSIDAWGHGTEVIVSS VL: ALTQPSSVSASPGETVKITCSGSSDSWYGWYQQKSPGSALVTVIYDSTNRPSSIPSRFSGSTSGSTGTLTITGVRADDEAVYFCGSFDSSTDSTAFGAGTTLTVL
val: 0.28
--
binder: 38G04 (antibody, human IgG1, V domains shown, Chimeric: chicken variable regions on human IgG1 LALA (L234A/L235A); also called 038G04) VH: AVTLDESGGGLQTPGRALSLVCKASGFTFSSYNMFWVRQAPGKGLEWVAGIDDDGSFTLYGAAVKGRATISRDNGQSTVRLQLNNLRAEDTGTYYCARDSGAVSIDAWGHGTEVIVSS VL: ALTQPSSVSANPGETVKITCSGGDSDYGWYQQKSPGSAPVTVIYQNDKRPSDIPSRFSGSASGSTATFTITGVQAEDEAVYYCGGWDGSYDGAVFGAGTTLTVL
val: 0.35
--
binder: 7G04 (antibody, human IgG1, V domains shown, Chimeric: mouse variable regions on human IgG1 LALA (L234A/L235A); also called 07G04; 007G04) VH: QVQMKESGAELVRPGASVKLSCKALGYTFTDYEIQWVKQTPVHGLEWIGGIHPGSSGIVYNQKFKGKATLTADKSSSTAYMELSSLTSEDSAVYYCTRGGGYDGAWFAYWGQGSLVTVSA VL: ETTVTQSPASLSMAIGEKVTIRCITSTDIDDDMNWYQQKPGEPPKLLISEGNTLRPGVPSRFSSSGYGTDFVFTIENMLSEDVADYYCLQSDNLPFTFGSGTKLEIK
val: 0.27
--
binder: 37G04 (antibody, human IgG1, V domains shown, Chimeric: chicken variable regions on human IgG1 LALA (L234A/L235A); also called 037G04) VH: AVTLDESGGGLQTPGGALSLVCKASGFTFSDYDMLWVRQAPGKGLEFVAGINAASTYTDYGAAVKGRATISRDNGQSTVRLQVNNLRAEDTGTYYCAKSSYGGGWSDVGSIDAWGHGTEVIVSS VL: ALTQPSSVSANPGETVKITCSGDRSYYGYGWYQQKAPGSAPVTVIYWDDKRPSDIPSRFSGSTSGSTATLTITGVQAEDEAVYFCGNMDSSYVGMFGAGTTLTVL
val: 1.14
--
binder: 13G04 (antibody, human IgG1, V domains shown, Chimeric: mouse variable regions on human IgG1 LALA (L234A/L235A); also called 013G04) VH: QVQLQQSGAELVRPGASVKLSCKASGYTFTSYWMNWVKQRPGQGLEWIGMIDPSDNETHYNQMFKDKATLTVDKSSSTAYMQLSSLTSEDSAVYYCARSDYGNGYSFYLDVWGAGTTVTVSS VL: DIVLTQSPASLAVSLGQRATISCRASESVDSYGNSFMHWYQQKPGQPPKLLIYRASNLESGIPARFSGSGSRTDFTLTINPVEADDVATYYCQQSNEDPWTFGGGTKLEIK
val: 0.26
--
binder: 6G04 (antibody, human IgG1, V domains shown, Chimeric: mouse variable regions on human IgG1 LALA (L234A/L235A); also called 06G04; 006G04) VH: QVQLQQSGAELVMPGASVKMSCKASGYTFTDYWMHWVKQRPGQGLEWIGSIDTSDSYTTYSQKFKGKATLTVDESSSTAYMELARLTSEDSAIYYCVRGEDYEGTWFAYWGQGTLVTVSA VL: ETTVTQSPASLSVATGEKVTIRCITSTDIDDDMNWYQQKPGEPPKLLISEGNTLRPGVPSRFSSSGYGTDFVFTIENTLSEDVADYYCLQSDNMPLTFGAGTKLELK
val: 0.27

Req: For 35G04 (antibody, human IgG1, V domains shown, Chimeric: chicken variable regions on human IgG1 LALA (L234A/L235A); also called 035G04) VH: AVTLDESGGGLQTPGGALSLVCKASGFTFSNYGMGWMRQAPGKGLEFVAKIYKDGGYTGYGAAVDGRATISRDDGQSTVRLQLNDLRAEDTATYFCAKAADSGYLYITDSIDAWGHGTEVIVSS VL: ALTQPSSVSANPGETVKITCSGGSGSYGWFQQKSPGNAPVTVIYHNDQRPSDIPSRFSGSKSGSTATLTITEVQADDEAVYVCGGYDNDNDAGIFGAGTTLTVL , write its IC50 of oxLDL uptake inhibition (DiI-oxLDL, SCC25 cells).
Resp: 0.11
